pIC50: −log10 of the molar value.
Dear all, this message contains pIC50 results, target or system RPE65 (Bos taurus).
endpoint.name: pIC50

1: CCCC(CCC)COc1cccc([C@H](O)CCN)c1
2: CCCC(CCO)COc1cccc(C(O)CCN)c1 (mixture of isomers)
Q. Problem: Given the entries 1 and 2 , determine which has the lower reported pIC50. # respond with the chosen item's label
A. 2
(2: 6.72, 1: 6.97)

* * *

- System: C57BL/6J mice
- experimental.protocol: in vivo dark-adapted ERG recordings after bleach
- Parameters: species or system mouse
- experimental.conditions: gavage 1 day before bleach, doses indicated effective by retinoid analysis
endpoint.name: dark-adapted ERG 6 hours after 95% bleach

>  <compound>
CC(C)c1cc(OCC2CCCCC2)cc(C(O)CCN)c1 (stereo not shown) [MB-005]

>  <observed>
less incomplete recovery

$$$$
>  <compound>
CC(C)c1cc(OCC2CCCCC2)cc(C(O)CCN)c1 (stereo not shown) [MB-006]

>  <observed>
less incomplete recovery

$$$$
